# TARGET_SYSTEM: Alpha-2C adrenergic receptor (Homo sapiens) (UniProt P18825)
# Sequence (P18825 whole entry, looked up): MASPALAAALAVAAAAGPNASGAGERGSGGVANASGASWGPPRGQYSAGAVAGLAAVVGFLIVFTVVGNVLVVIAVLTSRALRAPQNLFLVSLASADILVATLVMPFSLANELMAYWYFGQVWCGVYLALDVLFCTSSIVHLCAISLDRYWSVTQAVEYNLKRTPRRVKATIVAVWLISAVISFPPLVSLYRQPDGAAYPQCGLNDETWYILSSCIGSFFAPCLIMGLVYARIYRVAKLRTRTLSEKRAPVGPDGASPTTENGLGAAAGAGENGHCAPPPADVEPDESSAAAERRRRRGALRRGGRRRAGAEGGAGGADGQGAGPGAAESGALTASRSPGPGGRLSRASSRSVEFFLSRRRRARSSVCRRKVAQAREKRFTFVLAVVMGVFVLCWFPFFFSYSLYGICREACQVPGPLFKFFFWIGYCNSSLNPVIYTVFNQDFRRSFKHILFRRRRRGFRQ
# EXPERIMENTAL_PROTOCOL: modulators of alpha2C/GIRK thallium flux, primary screen, cell-based, HEK293 alpha2C/GIRK1/2 (AID 624);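 further: slope of fluorescence ratio to pre-addition baseline per second over 15 to 24 s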
# TEST_CONTEXT: thallium flux BTC fluorescence, at 10 µM, actives lie on both sides
MEASURED_PROPERTY: slope

• COc1ccc(/C=N/n2cncn2)cc1COc1ccc(NC(C)=O)cc1 = 0.00513
• CCOC(=O)c1c(C)n(C)c2ccc(O)c(S(=O)(=O)c3ccccc3)c12 = 0.00656
• CCOC(=O)C1CCN(c2nc3ccccc3nc2C(C#N)C(=O)OCCOC)CC1 (configuration not stated) = 0.00561
• CN1C(=O)CC(N2CCN(c3ccc(Cl)c(Cl)c3)CC2)C1=O (configuration not stated) = 0.00484
• Cc1cccc(C)c1NC(=O)C1CCCCN1C (configuration not stated) = 0.00459
• c1ccc(CSc2nnc(SCc3ccccn3)s2)nc1 = 0.00665
• O=C(Nc1ncn[nH]1)c1c(Cl)ccc(Cl)c1Cl = 0.00528
• O=c1[nH]c(-c2ccccn2)nc2ccccc12 = 0.00479
• Clc1ccc2[nH]c3c(NCCCN4CCOCC4)ncnc3c2c1 = 0.00501
• CCSc1nc(N)c(C#N)c(-c2ccccc2Cl)c1C#N = 0.00512
• COCCOC(=O)c1c(C)nc(SCC(=O)Nc2ccc(OC)cc2)c(C#N)c1-c1ccco1 = 0.00733
• Cc1ccc(S(=O)(=O)c2cc3c(=O)n4ccccc4nc3n(C)c2=N)cc1 = 0.00439
• CC1=C(c2ccc(Cl)cc2)[N+](=O)C(C)(C)N1[O-] = 0.00633
• COc1ccc(OC)c(NC(=O)CSc2nnc(-c3ccco3)n2-c2ccc(C(=O)O)cc2)c1 = 0.00721
• NS(=O)(=O)c1cc2c(cc1Cl)NC(CSCc1ccccc1)=NS2(=O)=O = 0.00625
• O=C(O)CC(NC(=O)COc1ccc(Cl)cc1Cl)C(=O)O (configuration not stated) = 0.00527
• c1ccc(CN2CCN(c3nc(-c4ccccn4)nc4ccccc34)CC2)cc1 = 0.00604
• CC(=O)c1c(C)c2c(n1CCN(C)C)CCCC2 = 0.0146
• Cc1[nH]c2ccc3c(ncn3CCC#N)c2c1C = 0.00512
• Cc1nc(NS(=O)(=O)c2ccccc2)sc1NC(=O)OC(C)C = 0.00272
• Cc1nc2oc(C(=O)c3ccc(Br)cc3)c(N)c2c2c1COC(C)(C)C2 = 0.00462
• CC(C)Cc1nc2n[nH]c(N)c2c2c1CCC2 = 0.0075
• CCOC(=O)C1CCN(c2nc3ccccc3nc2C(C#N)C(=O)NCCc2ccccc2)CC1 (configuration not stated) = 0.00158
• COc1ccc(C2C(C#N)=C(N)SC(N)=C2C#N)cc1OC = 0.00592
• Oc1c(C=NCc2ccncc2)sc2ccccc12 = 0.00509
• COc1cc(=O)n2c(-c3ccccc3)csc2n1 = 0.00547
• c1cncc(Oc2cccc(Oc3cccnc3)c2)c1 = 0.00527
• O/N=C/c1ccc(OCC(O)COc2ccc(/C=N/O)cc2)cc1 = 0.00891
• CN1CC=C2C(C#N)=C(N)C(C#N)(C#N)[C@H](c3cccc(Cl)c3)C2C1 (some centres not stated) = 0.00551
• CCN(CC)CCN1C(=O)C(=O)/C(=C(/O)c2c(C)[nH]c(C(=O)OC)c2C)C1c1ccco1 (configuration not stated) = 0.00421
• COC(=O)C1=C(C)N=C2SC(C)C(=O)N2C1/C=C/c1ccccc1OC (configuration not stated) = 0.00673
• O=C1OC2CCC1(c1ccccc1)C2 (configuration not stated) = 0.00472
• CC(C(=O)O)c1ccc(-c2ccccc2)c(F)c1 (configuration not stated) = 0.0055
• CC1(c2ccco2)NC(=O)NC1=O (configuration not stated) = 0.00442
• C[C@]12C[C@H](O)[C@H]3[C@@H](CCC4=CC(=O)CC[C@@]43C)[C@@H]1CC[C@@H]2C(=O)CO = 0.00481
• OC(CCN1CCCCC1)(c1ccccc1)c1ccccc1 = 0.00533
• CC(=O)c1cc(C#N)c(SCc2ccncc2)nc1C = 0.00573
• N#Cc1ccc(-c2ccco2)nc1SCC(=O)c1ccc(Cl)cc1 = 0.00718
• O=C1c2ccccc2S(=O)(=O)N1CC(O)COc1ccc(Cl)cc1 (configuration not stated) = 0.00476
• CN=c1sc2ccccc2n1CC(O)COc1ccccc1 (configuration not stated) = 0.00426
• Cc1ccnc(N2CCN(c3cc(C)c(C#N)c4nc5ccccc5n34)CC2)c1 = 0.00554
• CCCOc1ccc(Cc2nn[nH]n2)cc1 = 0.00599
• CCc1ccc2c(c1)C(C)=CC(C)(C)N2 = 0.00542
• CCOC(=O)C1CCCN(c2nc3ccccc3nc2C(C#N)C(=O)OC(C)C)C1 (configuration not stated) = 0.00207
• CCOc1ccc(Cn2c(O)cc(=O)[nH]c2=O)cc1 = 0.00555
• COc1ccc(OC(=O)c2cc3ccccc3o2)cc1 = 0.0058
• CCN(CC)CCCn1c(C)cc2c(c1=O)C(c1cccc(Cl)c1)C(C#N)=C(N)O2 (configuration not stated) = 0.00525
